Data credit: patent US9931324B2

Examples of compounds with documented pIC50 follow.
# assayed_target: P2X7 (Homo sapiens)
# Sequence (Q99572 whole entry): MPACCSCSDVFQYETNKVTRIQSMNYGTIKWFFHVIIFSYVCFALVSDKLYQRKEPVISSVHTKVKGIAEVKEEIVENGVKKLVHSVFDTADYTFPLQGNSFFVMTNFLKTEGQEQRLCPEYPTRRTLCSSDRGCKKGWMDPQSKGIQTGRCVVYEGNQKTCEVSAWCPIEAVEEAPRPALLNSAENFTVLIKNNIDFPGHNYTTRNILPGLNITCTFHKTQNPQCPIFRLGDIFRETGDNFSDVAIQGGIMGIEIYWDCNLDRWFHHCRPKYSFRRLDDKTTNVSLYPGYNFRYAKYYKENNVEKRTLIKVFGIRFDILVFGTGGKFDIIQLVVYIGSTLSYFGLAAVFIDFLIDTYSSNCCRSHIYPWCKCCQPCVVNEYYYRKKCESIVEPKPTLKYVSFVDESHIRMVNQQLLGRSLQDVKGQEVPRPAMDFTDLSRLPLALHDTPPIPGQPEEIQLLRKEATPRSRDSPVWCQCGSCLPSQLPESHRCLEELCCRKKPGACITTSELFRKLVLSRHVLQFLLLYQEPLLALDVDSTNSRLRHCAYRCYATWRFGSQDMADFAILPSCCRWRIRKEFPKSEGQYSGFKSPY
# assay_notes: IL-1β release assay in THP-1 cells (sandwich ELISA, BzATP-stimulated)
# Format: cell-based
# Set-up: endogenous in cells; host or cells: THP-1 cells (PMA-differentiated, LPS-primed)
# stated_conditions: LPS primed, 0.8 mM BzATP, mature IL-1β release, read-out: hTHP-1/IL-ib IC50
pIC50: −log10 of the molar value.

Worked examples follow.
> print(dat)
                                   compound   test.result
1  CC1CC(CNC(=O)c2cc(CCO)n3cccc(Cl)c23)CC(F)(F)C1 (stereo not drawn) [Compound 36]  7.00 to 8.00
2  COCCc1cc(C(=O)NC[C@@]2(O)CCC[C@@H](C)C2)c2c(Cl)cccn12 [Compound 18]  7.00 to 8.00
3  O=C(NCC1CCC(F)(F)CC1)c1cc(CC2CCOC2)n2cccc(Cl)c12 (stereo not drawn) [Compound 30]  6.30 to 7.00
4  COCCc1cc(C(=O)NCC2(O)CCCC(F)(F)C2)c2c(Cl)cccn12 (stereo not drawn) [Compound 62]  7.00 to 8.00
5  O=C(NCC1CCCCCC1)c1cc(CCO)n2cccc(Cl)c12 [Compound 6]  7.00 to 8.00
6  COCCc1cc(C(=O)NCC2CCCCC2)c2c(Cl)cccn12 [Compound 8]  6.30 to 7.00
7  COCCc1cc(C(=O)NC[C@@]2(O)CCC[C@@H](C)C2)c2c(C)cccn12 [Compound 16]  6.30 to 7.00
8  O=C(NCC1CCC(F)(F)CC1)c1cc(C2CCOC2)n2cccc(Cl)c12 (stereo not drawn) [Compound 40]  7.00 to 8.00

Moving on to the next compound.
Exercise: Supply reported pIC50 belonging to this compound: COCCc1cc(C(=O)NCC2(O)CCC(F)(F)CC2)c2c(Cl)cccn12 [Compound 53]
Solution: 7.00 to 8.00
